Biological target: Replicative DNA helicase DnaB (Mycobacterium tuberculosis, UniProt P9WMR3)
Sequence (P9WMR3 whole entry): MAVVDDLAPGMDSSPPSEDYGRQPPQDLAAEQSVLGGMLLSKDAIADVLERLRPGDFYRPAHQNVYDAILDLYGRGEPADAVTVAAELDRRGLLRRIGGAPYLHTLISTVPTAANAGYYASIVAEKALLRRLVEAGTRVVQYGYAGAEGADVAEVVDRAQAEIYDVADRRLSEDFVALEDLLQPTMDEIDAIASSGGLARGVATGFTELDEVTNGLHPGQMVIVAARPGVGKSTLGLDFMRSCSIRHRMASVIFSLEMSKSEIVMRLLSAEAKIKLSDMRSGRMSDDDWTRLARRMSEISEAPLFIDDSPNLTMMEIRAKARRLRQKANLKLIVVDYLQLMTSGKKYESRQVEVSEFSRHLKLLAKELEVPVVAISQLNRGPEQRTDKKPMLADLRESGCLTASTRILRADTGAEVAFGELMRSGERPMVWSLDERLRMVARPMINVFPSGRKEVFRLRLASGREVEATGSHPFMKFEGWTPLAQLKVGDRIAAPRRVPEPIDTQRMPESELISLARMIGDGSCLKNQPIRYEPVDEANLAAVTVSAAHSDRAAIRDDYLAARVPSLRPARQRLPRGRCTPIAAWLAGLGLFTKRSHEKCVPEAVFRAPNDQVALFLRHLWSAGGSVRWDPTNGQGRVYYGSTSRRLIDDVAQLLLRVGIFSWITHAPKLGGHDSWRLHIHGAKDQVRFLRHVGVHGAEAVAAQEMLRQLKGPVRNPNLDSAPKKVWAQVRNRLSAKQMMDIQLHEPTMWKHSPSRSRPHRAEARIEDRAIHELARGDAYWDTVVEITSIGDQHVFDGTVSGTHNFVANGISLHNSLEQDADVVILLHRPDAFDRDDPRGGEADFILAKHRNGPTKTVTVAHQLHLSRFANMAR
Experiment: DnaB intein splicing inhibitors, dose response, biochemical, cell-free fluorescence (AID 449749)
Assay type: functional
Active and inactive are the calls of the source.
I would appreciate it if you answered using one of these outcomes: label 1 for active, label 0 for inactive

Please review the following examples before continuing.
- O=C(O)COc1cccc(/C=C2/SC(=S)N(Cc3ccccc3)C2=O)c1: label 1
- COc1ccc(CN2CCNC(=O)C2CC(=O)N(C)Cc2ccncn2)c(OC)c1 (stereo unspecified): label 1
- CCOC(=O)C1CCC2(CC1)C(C#N)=C(N)Oc1[nH]nc(C)c12 (stereo unspecified): label 1
- CC(=O)NC(c1ccc(Cl)cc1)c1c(O)ccc2ccc(O)cc12 (stereo unspecified): label 0
- COc1ccc(C(=O)NC(=S)NNC(=O)CCc2ccccc2)cc1: label 0
- COc1cc(C2C(C#N)=C(N)Oc3[nH]nc(C)c32)cc2c1OCO2 (stereo unspecified): label 1

For "O=C(CN1C(=O)S/C(=C\C=C\c2ccccc2)C1=O)Nc1ccccc1C(=O)O" , what call appears in the results of this test?
label 1

For "CCN(CC)CCNC(=O)c1ccc2c(c1NCCO)C(=O)c1ccccc1C2=O" , what call appears in the results of this test?
label 1

For "O=C(Oc1ccc(-c2nnco2)cc1)c1ccco1" , what call appears in the results of this test?
label 1

For "CCCCCN1N=C(C)CC1=O" , what call appears in the results of this test?
label 1

For "CSc1nnc(NC(=O)c2nc(S(=O)(=O)Cc3ccccc3F)ncc2Cl)s1" , what call appears in the results of this test?
label 1

###

Test: NIH-3T3 fibroblast cytotoxicity, dose response, cytotoxicity control, cell-based, fluorescence, Alamar Blue, secondary assay (AID 2327);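 note: NIH-3T3 mouse fibroblasts cultured with fluconazole at 8 µg/mL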
Assay type: functional
Calls of active or inactive are those of the source.
I would appreciate it if you answered using one of these outcomes: T = active, F = inactive

Please review the following examples before continuing.
• COc1cccc(/C=N\NC(=O)c2ccc(Cn3cc(Br)c([N+](=O)[O-])n3)o2)c1O = F
• Cc1ccc(C)c(N=Nc2ccc(O)c3ncccc23)c1 = T
• O=C(/C=C/c1ccco1)Oc1cc(Br)cc(/C=N/NC(=O)c2ccccc2O)c1 = F

Next:
For "CCOC(=O)N1CCN(Cc2cc(Cl)c3cccnc3c2O)CC1" , what call appears in the results of this test?
F

###

# EC50 annotations
Assay: inhibitors of SNCA 5'UTR-driven reporter translation, confirmation, H4 neuroglioma cells, luminescence (AID 1988)
Format: functional, cell-based
Counter-ions that a name gives are not always drawn. Calls of active or inactive are those of the source.

* CCOC(=O)c1c(C)nc2sc3c(=O)n(-c4ccc(OC)cc4)cnc3c2c1-c1ccc(OC)cc1 | 21.1 µM (active)
* Nc1ccn([C@@H]2O[C@H](CO)[C@@H](O)[C@@H]2O)c(=O)n1 [CYTARABINE HYDROCHLORIDE] | < 0.1 µM (active)
* Oc1ccc(Nc2nc3ccccc3nc2Nc2ccc(O)cc2)cc1 | > 120 µM (not active)
* O=C(/C=C/c1ccco1)Oc1cc(Br)cc(/C=N/NC(=O)c2ccccc2O)c1 | 2.62 µM (active)
* CCCN1CCC(=NNc2ccc(S(=O)(=O)N3CCOCC3)cc2[N+](=O)[O-])CC1 | 6.57 µM (active)

Please report the recorded EC50 for "O=C(CSc1n[nH]c(-c2ccccn2)n1)Nc1ccccc1" .
> 120 µM (not active)

###

# IC50 annotations
Molecular target: NS3 (Hepatitis C virus)
Sequence (A3EZJ3 whole entry): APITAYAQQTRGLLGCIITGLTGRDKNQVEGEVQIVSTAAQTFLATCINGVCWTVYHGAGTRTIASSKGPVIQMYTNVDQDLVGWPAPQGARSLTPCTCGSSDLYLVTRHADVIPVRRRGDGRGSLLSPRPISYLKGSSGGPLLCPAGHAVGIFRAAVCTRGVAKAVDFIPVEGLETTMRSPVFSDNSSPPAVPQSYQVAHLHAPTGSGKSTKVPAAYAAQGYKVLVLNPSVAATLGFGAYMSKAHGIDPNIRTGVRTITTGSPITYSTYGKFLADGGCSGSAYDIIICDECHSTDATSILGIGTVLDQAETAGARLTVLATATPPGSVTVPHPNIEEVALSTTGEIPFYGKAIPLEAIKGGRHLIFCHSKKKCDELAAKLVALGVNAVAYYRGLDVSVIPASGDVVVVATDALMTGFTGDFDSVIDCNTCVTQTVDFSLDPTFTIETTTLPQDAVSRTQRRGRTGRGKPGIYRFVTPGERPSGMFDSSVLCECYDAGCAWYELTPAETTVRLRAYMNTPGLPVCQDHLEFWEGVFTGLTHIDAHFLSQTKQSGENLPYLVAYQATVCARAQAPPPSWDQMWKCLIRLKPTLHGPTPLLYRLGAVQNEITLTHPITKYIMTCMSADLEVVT
Experiment: PubChem AID 2173
Design: species or system Hepacivirus hominis
Activity calls are given as the source filed them.

Worked examples follow.
* CCCCOc1ccccc1C(=O)NNC(=S)NC(=O)c1ccccc1[N+](=O)[O-] | 12.2 µM (not active)
* O=C(O)C1Nc2c(O)cccc2C2C=CCC12 (centres undefined) | 3.43 µM (active)

Record "Cc1ccc(/C=C/C(=O)c2ccccc(=O)c2O)c(C)c1" : what is its IC50 with NS3 (Hepatitis C virus)?
2.9 µM (active)

Record "O=C1OC(c2ccco2)=N/C1=C\c1ccc(-c2cccc(C(F)(F)F)c2)o1" : what is its IC50 with NS3 (Hepatitis C virus)?
22.1 µM (not active)

###

Assay: off-target signal loss in HeLa-CEM21 co-culture – HeLa F-luc CTL cells, cherry-picked, counter-screen for HIV-1 Env fusion inhibitor project, dose response (AID 652040);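 note: potency for signal decrease marking cytotoxic or nonspecific inhibition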
Assay type: functional, cell-based
Activity calls are given as the source filed them.
# AC50 annotations

Worked examples follow.
• Cc1cnc(C)c(Nc2nc(C(N)Cc3ccc(C(F)(F)F)cc3)cs2)n1 (centres undefined) = 5.07 µM (active)
• Cc1ccc2cc(C#N)c(NCCNC(=O)C3CCC3)nc2c1C = 11 µM (active)
• CC1=CC(C)(C)N2C(=O)C3(SCC(=O)N3c3ccc(F)cc3)c3cc(C)cc1c32 (centres undefined) = 43.1 µM (active)

For the next question, use this molecule.
Please report the recorded AC50 for CCC1(O)C(=O)OCc2c1cc1n(c2=O)Cc2cc3c(N)cccc3nc2-1 (centres undefined) [RS-9-Aminocamptothecin] .
< 0.26 µM (active)

###

# IC50 annotations
Biological target: Protein skinhead-1 (Caenorhabditis elegans)
Sequence (P34707 whole entry): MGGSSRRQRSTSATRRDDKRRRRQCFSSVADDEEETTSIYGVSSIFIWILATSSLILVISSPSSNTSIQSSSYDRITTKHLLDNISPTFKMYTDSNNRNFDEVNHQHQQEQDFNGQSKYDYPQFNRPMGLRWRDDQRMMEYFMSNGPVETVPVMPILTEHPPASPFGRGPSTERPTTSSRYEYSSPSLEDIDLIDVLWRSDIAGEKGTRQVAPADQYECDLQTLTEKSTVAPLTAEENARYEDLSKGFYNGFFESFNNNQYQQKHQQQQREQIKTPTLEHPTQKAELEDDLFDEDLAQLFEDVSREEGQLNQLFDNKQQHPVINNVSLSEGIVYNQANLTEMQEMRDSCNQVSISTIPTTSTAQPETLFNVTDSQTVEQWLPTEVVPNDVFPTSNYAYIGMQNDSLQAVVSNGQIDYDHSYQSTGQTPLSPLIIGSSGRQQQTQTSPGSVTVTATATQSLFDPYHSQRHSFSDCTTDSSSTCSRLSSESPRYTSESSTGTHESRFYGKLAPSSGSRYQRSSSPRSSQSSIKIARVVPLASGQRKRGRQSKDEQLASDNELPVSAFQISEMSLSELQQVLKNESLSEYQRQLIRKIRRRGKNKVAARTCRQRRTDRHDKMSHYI
Type: functional
Active and inactive are the calls of the source.

• CC(=O)NC(Cc1ccc(F)cc1)C(=O)N1CCN(C(=O)NCc2ccccc2)CC1 (centres undefined) = > 100 µM (inactive)
• c1ccc(-c2cc3c(N4CCOCC4)ncnc3s2)cc1 = > 100 µM (inactive)

Please report the recorded IC50 for "c1ccc(Oc2cc(-c3ccccc3)ncn2)cc1" .
17.4 µM (active)

Please report the recorded IC50 for "O=C(NCc1cccs1)c1csc([C@@H]2O[C@H](CO)[C@H](O)[C@H](O)[C@H]2O)n1" .
> 100 µM (inactive)

// data source = ChEMBL document CHEMBL1201862
